Source of measurements: patent US20070197512A1

- Subject Of Test: human URAT1 (Homo sapiens)
- Construct: Human URAT1 full length cDNA was subcloned to expression vector pcDNA3.1
- Sequence (Q96S37 whole entry): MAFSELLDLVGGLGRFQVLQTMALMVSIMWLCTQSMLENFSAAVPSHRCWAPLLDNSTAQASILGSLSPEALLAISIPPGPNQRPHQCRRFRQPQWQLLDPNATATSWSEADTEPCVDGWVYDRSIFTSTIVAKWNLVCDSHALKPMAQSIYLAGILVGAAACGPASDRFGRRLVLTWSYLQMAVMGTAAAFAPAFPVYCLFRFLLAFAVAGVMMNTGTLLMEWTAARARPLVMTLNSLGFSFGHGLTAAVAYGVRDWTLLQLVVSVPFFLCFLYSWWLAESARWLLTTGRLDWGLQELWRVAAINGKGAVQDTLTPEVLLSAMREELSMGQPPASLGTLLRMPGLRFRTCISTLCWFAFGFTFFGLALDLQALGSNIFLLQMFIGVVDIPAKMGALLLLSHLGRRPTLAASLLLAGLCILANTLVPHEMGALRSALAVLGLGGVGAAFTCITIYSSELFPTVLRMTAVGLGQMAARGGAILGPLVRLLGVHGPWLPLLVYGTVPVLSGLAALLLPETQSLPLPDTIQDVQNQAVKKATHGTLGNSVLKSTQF
- Experiment: Uric acid transport inhibitory test using human URAT1-expressing cells
- Condition Notes: human URAT1-expressing HEK293 cells, 14C-uric acid 50 μM, uptake 5 min, room temperature; read-out: hURAT1 IC50
Experimental Readout: IC50

Use these answered entries as a reference point.
> print(dat)
                                   compound       result
1               O=C(O)CCC(=O)N1CCOc2ccccc21       ≥ 3 µM
2  CC(C)C1Oc2ccc([N+](=O)[O-])cc2N(CCC(=O)O)C1=O (centres unmarked)  0.3 to 3 µM

IC50 lookup needed for CC(C)C1Oc2ccc(C(C)(C)C)cc2N(CCC(=O)O)C1=O (centres unmarked) , thanks. 0.3 to 3 µM

IC50 lookup needed for CC(C)C1Oc2ccccc2N(CC(=O)O)C1=O (centres unmarked) , thanks. ≥ 3 µM

IC50 lookup needed for CC(C)c1cccc2c1OC(C(C)C)C(=O)N2Cc1ccccc1C(=O)O (centres unmarked) , thanks. ≥ 3 µM
